All values here come from the supplement of paper PMC10567573.

B1: ZNF511 (parent)
chain: YEHHYHTLHGNVCSFCKRAFPSGH

Variants of: B1
PROTOCOL DETAILS: protein stability index of a GFP-peptide fusion (GPS, HEK-293T) (PSI 1-6); higher = more stable;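 also: lentivirally expressed fusions sorted by FACS into six bins by GFP to DsRed ratio, PSI derived from sequencing read proportions per bin multiplied by bin number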
STATED CONDITIONS: c terminus: a fixed tail appended
RESULT TYPE: protein stability index
Numbers only.

A selection of reference data follows.
| VARIANT NOTATION | protein stability index |
| --- | --- |
| V12K | 2 |
| F15V | 2 |

// batch mode: one protein stability index value per listed entry
1. S14L
2. V12C

### Response
1. 2.04
2. 2.02
